- TARGET ENTITY: MlotiK1 CNB domain R348Y mutant (Mesorhizobium japonicum, UniProt Q98GN8, R348Y)
- Sequence (Q98GN8 211-355 R348Y limits assumed): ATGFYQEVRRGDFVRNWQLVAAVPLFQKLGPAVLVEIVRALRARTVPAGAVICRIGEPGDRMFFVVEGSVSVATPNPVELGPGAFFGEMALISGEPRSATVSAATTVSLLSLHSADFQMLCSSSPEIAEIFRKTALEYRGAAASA
- PROTOCOL NOTES: 8-NBD cAMP fluorescence competition binding assay
- TEST CONTEXT: modified titration
PARAMETER: pKd
Reminder that pKd is minus the log10 of a molar concentration.

Qu. // query pKd value for entry Nc1nc2c(ncn2[C@@H]2O[C@@H]3COP(=O)(O)O[C@H]3[C@H]2O)c(=O)[nH]1
Ans. 4.48
